- test-method-notes: Toxicity liver stage against HepG2, at 10uM
- Format: cell-based
- Set-up: test concentration 10 uM, cell line HepG2-A16-CD81EGFP
- settings: human, HepG2-A16-CD81EGFP cells; read-out: INHIBITION
result-type: cytotoxicity at 10 µM (%)
Value expressed in %; do not type the unit.

The cases that follow already have their cytotoxicity at 10 µM on record.
O=S(=O)(c1cccs1)N1CCCn2cnc(CN3CCCC3)c2C1    1.14
Cc1nc(CO[C@@H]2CN(Cc3cccnc3)[C@@H]3COC[C@@H]32)cs1    5.05
Cc1nsc(NC(=O)NC2CCCN(C)C2)n1 (configuration not stated)    -17.1
Cc1ccc(OC2CCN(S(=O)(=O)N(C)C)CC2)nc1    7.68
Cc1ccc(NC(=O)N(CCO)Cc2ccsc2)cc1    3.58
Fc1cccnc1N1CCCC(c2nccs2)C1 (configuration not stated)    1.48
CC(=O)NCCC(=O)NCCCOc1c(C)cccc1C    -4.81
N#Cc1ccc(NC(=O)C2CSCN2)cc1 (configuration not stated)    2.62

Would you mind telling me what cytotoxicity at 10 µM value was observed for COc1cc(CN(C)C(=O)Cc2c(C)nn(C)c2C)ccc1OC(F)F ?
39.2

Which cytotoxicity at 10 µM is listed for CN1CCN(C(=O)c2cc3occc3n2Cc2ccccc2F)CC1 ?
1.14

Quick one: cytotoxicity at 10 µM for CNc1nc(C2CCCN2C(C)=O)nc2c1CN(CCO)CC2 (configuration not stated) ?
2.69

Recorded cytotoxicity at 10 µM of O=C(CN1CCCCCC1=O)NC1CCc2nccn2C1 (configuration not stated) , please.
2.8

Recorded cytotoxicity at 10 µM for CCc1nc2n(n1)CC(NCc1ncc(-c3ccccc3)o1)CC2 (configuration not stated) , please?
-3.91

I would be grateful if you could share the reported cytotoxicity at 10 µM for c1cn(-c2cncc(C3CCNCC3)n2)cn1 .
-32.5

cytotoxicity at 10 µM for Cc1c[nH]nc1C1CN(Cc2cnn(-c3ccccc3C(=O)O)c2)C1 ?
3.32

# cytotoxicity at 10 µM lookup, item COCCN1CCCC(O)(CN2CCN(c3ncccc3C)CC2)C1=O (configuration not stated)
-10.3

Query: cytotoxicity at 10 µM; subject: Cc1cc2n(n1)CC(CNCc1ccc(N3CCOCC3)nc1)CN2 (configuration not stated)
-15.3

# cytotoxicity at 10 µM lookup, item CCc1noc(CN2CCCC2c2noc(C3CC3)n2)n1 (configuration not stated)
-3.76

// cytotoxicity at 10 µM lookup, key: COCCNC(=O)NC1(c2ccccc2F)CC1
-0.421

What value of measured cytotoxicity at 10 µM is listed for CNC(=O)c1ccc(C2CN(C(=O)c3scnc3C)CCO2)nc1 (configuration not stated) ?
19.7

Param item = CCS(=O)(=O)N1C[C@@H]2COC[C@@H](Cc3nc(C)no3)[C@@H]2C1 ; retrieve measured cytotoxicity at 10 µM.
9.04

Sample O=C(NCc1cccs1)NCC1(O)CCc2ccccc2C1 (configuration not stated) — what was its cytotoxicity at 10 µM?
-13.8

====

- test-method-notes: Toxicity liver stage against HepG2, at 10uM
- Assay type: cell-based
- Set-up: test concentration 10 uM, cell line HepG2-A16-CD81EGFP
- settings: human, HepG2-A16-CD81EGFP cells; read-out: INHIBITION
result-type: cytotoxicity at 10 µM (%)
Expressed in %, but write only the number.

Example entries and their recorded answers appear below.
Cc1ccc(CCNC(=O)N2CCC(Cc3cnn(C)c3)C2)cn1 (stereo unspecified)    3.71
CCOc1cc(C(=O)N2CCN(CC)CC2)cc2occc12    4.37
c1cnnc(N2CCCC(NCc3cn4ccccc4n3)C2)c1 (stereo unspecified)    -5.87

What value of cytotoxicity at 10 µM has been recorded for this entry: CC(C)NC(=O)N1CCOC2(CCCN(c3ncccc3F)C2)C1 (stereo unspecified)
-4.45

Requested field: cytotoxicity at 10 µM. Item: CCc1cnc(CN(C)C2CCN(CCS(C)(=O)=O)C2)o1 (stereo unspecified)
-3.94

====

- test-method-notes: Toxicity liver stage against HepG2, at 10uM
- Format: cell-based
- Parameters: test concentration 10 uM, cell line HepG2-A16-CD81EGFP
- settings: human, HepG2-A16-CD81EGFP cells; read-out: INHIBITION
Output y for records whose cytotoxicity at 10 µM is lower than -10%, n for records at or above -10%.

Solved cases below.
Cc1ccc(C(=O)N2CCC3(CCC(=O)N(CCN(C)C)C3)CC2)nc1    n
c1ccc2c(N3CCSCC3)cnnc2c1    n
Cc1ccc(N2CCCN(C(=O)c3cc(Cl)c[nH]3)CC2)nn1    n

Please check: cytotoxicity at 10 µM for Cn1cnc2c1C(COCC1CC1)CN(C(=O)c1cccs1)C2 (stereo not given) , strictly under -10% or not?
n

In plain terms, does O=c1n(Cc2ncccn2)nc(C2CCNCC2)n1-c1ccccc1 come in under -10% for cytotoxicity at 10 µM?
n

Determine if O=C(CC1OCCc2ccsc21)NCC1CC1 (stereo not given) shows cytotoxicity at 10 µM strictly lower than -10%.
n

Input Cc1noc(Cl)c1CCC(=O)N1CCN(Cc2ccncc2)CC1 ; condition: cytotoxicity at 10 µM strictly below -10%. Does it hold?
y

For this molecule, is cytotoxicity at 10 µM lower than -10%? CC(C)c1nc(CN(C)C(=O)CCS(=O)(=O)c2ccccc2)no1
y

Given the entry Cc1cc(C)c(C(=O)NC(c2nnc3n2CCNCC3)C(C)C)c(C)c1 (stereo not given) , would its reported cytotoxicity at 10 µM be below -10%?
n

Strictly below -10% in cytotoxicity at 10 µM? Cc1nc(CN2C(=O)CC[C@@H]3[C@H]2CCN3C2CCOCC2)cs1
y

====

- test-method-notes: Toxicity liver stage against HepG2, at 10uM
- Format: cell-based
- Parameters: test concentration 10 uM, cell line HepG2-A16-CD81EGFP
- settings: human, HepG2-A16-CD81EGFP cells; read-out: INHIBITION
result-type: cytotoxicity at 10 µM (%)
Note: unit % is implicit; provide only the numeric part.

See these solved cases before continuing.
CC(=O)NCC1CCN(C(=O)c2csc(-c3ccc(C)cc3C)n2)CC1    -10.8
CCn1c(CN(C)C)nnc1C1CCN(Cc2ccc(Cl)cc2F)CC1    -2.53

// cytotoxicity at 10 µM lookup, key: O=C(NC1CCCCC1)N1C[C@@H]2OCCN(C(=O)c3ccco3)[C@@H]2C1
-152

====

- test-method-notes: Toxicity liver stage against HepG2, at 10uM
- Format: cell-based
- Parameters: test concentration 10 uM, cell line HepG2-A16-CD81EGFP
- settings: human, HepG2-A16-CD81EGFP cells; read-out: INHIBITION
cytotoxicity at 10 µM reference
// note: answer is a bare numeric in %

For the molecule shown here, Cc1nc(CCNC(=O)NCc2ccc(N(C)C)nc2)cs1 , give the reported cytotoxicity at 10 µM.
-11.3

// returns reported cytotoxicity at 10 µM for input COC(=O)c1ccc(N2CCN(C(=O)c3cc(C)no3)C(C)C2)cc1 (stereo not drawn)
-0.192

Need cytotoxicity at 10 µM, item CCc1cnc(CN(C(C)=O)C2CCN(CCc3ccncc3)C2)o1 (stereo not drawn)
-5.95

cytotoxicity at 10 µM lookup needed for COCC1CN(Cc2ccc(C)s2)Cc2nnn(C)c21 (stereo not drawn) , thanks.
5.17

# get_value(readout='cytotoxicity at 10 µM', item= CCN(C(c1cccnc1)c1ccc2c(c1)CCC2)S(C)(=O)=O (stereo not drawn) )
5.82

Find the recorded cytotoxicity at 10 µM belonging to CC1CCN(C[C@H]2CN3CC[C@H]2C[C@@H]3CNC(=O)Nc2ccsc2)CC1 and report it.
2.95

====

Measured cytotoxicity at 10 µM accompanies every entry in the list below.
- test-method-notes: Toxicity liver stage against HepG2, at 10uM
- Format: cell-based
- Parameters: test concentration 10 uM, cell line HepG2-A16-CD81EGFP
- settings: human, HepG2-A16-CD81EGFP cells; read-out: INHIBITION
Answer format: numeric, % implied, no suffix.

Some compounds with known cytotoxicity at 10 µM results, for comparison:
Cc1cc(C)n(C2CCCN(C(=O)CN(C)c3cnccn3)C2)n1 (centres undefined)    3.36
Cc1nn(C)cc1CNCc1ccc(N(C)C)cc1    -11.9
CC(C)(C(=O)NCC(=O)NCc1ccccc1)c1ccccc1F    4.63
CC(C)(C)n1ncc2c1NC(=O)CSC2c1ccsc1 (centres undefined)    -2.34
CNC(=O)Cn1c(-c2ccco2)nn(-c2ccccc2OC)c1=O    2.51
Cc1cc(C)n(C2CN(CC(=O)N(C)Cc3ccc(C)o3)C2)n1    -6.24

Please look up its cytotoxicity at 10 µM: COc1ccc(OC)c(CN2CCC(c3cc(O)nc(C)n3)C2)c1 (centres undefined)
-15

Give the measured cytotoxicity at 10 µM of Cc1cccc(CN2CCCC(O)(CNCc3cccc(F)c3)C2=O)c1 (centres undefined) .
-12.1

Which cytotoxicity at 10 µM value belongs to Cc1cc(-c2cc(C3CCOC3)c(C#N)c(N)n2)ccc1Cl (centres undefined) ?
-0.611

Fill in the blank: the reported cytotoxicity at 10 µM of O=C(c1ccsc1)N1CC[C@@H](N2CCOCC2)[C@@H]1Cc1ccccc1 is ____.
-71.8

What does the data say about its cytotoxicity at 10 µM? Entry: COc1cc(CNC2CCCN(c3cccnn3)C2)cc2c1OCO2 (centres undefined)
-2.22
